Just for reference, patent EP4458820A1 is where these values come from.

Assay: pharmacokinetic studies in mice
Format: in vivo
Conditions: mouse, in vivo, po, mean, read-out: Cmax
The molecules listed here are annotated with their Cmax.

{"columns": ["STRUCTURE_STRING", "Cmax"],
 "data": [
  ["Cc1cc(-c2ccc(F)cc2)nc2ccc(Oc3c(Cl)cc(-n4nc(C#N)c(=O)[nH]c4=O)cc3Cl)cc12", "10500 ng/mL"],
  ["Cc1cc(C(F)(F)F)nc2ccc(Oc3c(Cl)cc(-n4nc(C#N)c(=O)[nH]c4=O)cc3Cl)cc12", "23100 ng/mL"]
]}

====

Assay: tissue distribution studies in mice
Assay type: in vivo
Settings: mouse, heart, po, 10 mg/kg, Table 4, 3 h, individual animal, read-out: Heart

{"columns": ["COMPOUND", "concentration at 3 h (ng/g)"],
 "data": [
  ["Cc1cc(C(F)(F)F)nc2ccc(Oc3c(Cl)cc(-n4nc(C#N)c(=O)[nH]c4=O)cc3Cl)cc12 [Compound 38]", 189]
]}

====

Assay: tissue distribution studies in mice
Type: in vivo
Conditions: mouse, plasma, po, 10 mg/kg, Table 4, 8 h, mean, read-out: Plasma Mean

{"columns": ["STRUCTURE_STRING", "concentration at 8 h (ng/mL)"],
 "data": [
  ["Cc1cc(C(F)(F)F)nc2ccc(Oc3c(Cl)cc(-n4nc(C#N)c(=O)[nH]c4=O)cc3Cl)cc12", 3220]
]}

====

Assay: tissue distribution studies in mice
Format: in vivo
Settings: mouse, plasma, po, 10 mg/kg, Table 6, 8.00 h, mean, read-out: plasma Mean
MEASURED_PARAMETER: concentration at 8 h (ng/mL)

{"columns": ["MOLECULE", "TEST_VALUE"],
 "data": [
  ["Cc1cc(C(F)(F)F)nc2ccc(Oc3c(Cl)cc(-n4nc(C#N)c(=O)[nH]c4=O)cc3Cl)cc12 [Compound 38]", 3430]
]}

====

Test: tissue distribution studies in mice
Type: in vivo
Conditions: mouse, po, 10 mg/kg, Table 6, 8.00 h, individual animal, read-out: plasma
MEASURED_PARAMETER: concentration at 8 h (ng/mL)

{"columns": ["STRUCTURE_STRING", "UNIT_LABEL", "TEST_VALUE"],
 "data": [
  ["Cc1cc(C(F)(F)F)nc2ccc(Oc3c(Cl)cc(-n4nc(C#N)c(=O)[nH]c4=O)cc3Cl)cc12", "ng/mL", 3330]
]}

====

Assay: pharmacokinetic studies in mice
Format: in vivo
Conditions: mouse, in vivo, iv, individual animal
The compounds listed here are annotated with their half-life.

{"columns": ["COMPOUND", "half-life [h]"],
 "data": [
  ["Cc1cc(C(F)(F)F)nc2ccc(Oc3c(Cl)cc(-n4nc(C#N)c(=O)[nH]c4=O)cc3Cl)cc12 [Compound 38]", 3.93],
  ["Cc1cc(-c2ccc(F)cc2)nc2ccc(Oc3c(Cl)cc(-n4nc(C#N)c(=O)[nH]c4=O)cc3Cl)cc12 [Compound 3]", 6.4]
]}

====

Assay: tissue distribution studies in mice
Type: in vivo
Details: mouse, plasma, po, 10 mg/kg, Table 4, 3 h, mean, read-out: Plasma Mean
MEASURED_PARAMETER: concentration at 3 h (ng/mL)

{"columns": ["STRUCTURE_STRING", "UNIT_LABEL", "TEST_VALUE"],
 "data": [
  ["Cc1cc(C(F)(F)F)nc2ccc(Oc3c(Cl)cc(-n4nc(C#N)c(=O)[nH]c4=O)cc3Cl)cc12", "ng/mL", 7860]
]}

====

Experiment: tissue distribution studies in mice
Format: in vivo
Settings: mouse, heart, po, 10 mg/kg, Table 6, 3.00 h, mean, read-out: Heart Mean
MEASURED_PARAMETER: concentration at 3 h (ng/g)

{"columns": ["STRUCTURE_STRING", "UNIT_LABEL", "TEST_VALUE"],
 "data": [
  ["Cc1cc(C(F)(F)F)nc2ccc(Oc3c(Cl)cc(-n4nc(C#N)c(=O)[nH]c4=O)cc3Cl)cc12", "ng/g", 194]
]}

====

Assay: tissue distribution studies in mice
Format: in vivo
Details: mouse, liver, po, 10 mg/kg, Table 6, 8.00 h, mean, read-out: Liver Mean

{"columns": ["STRUCTURE_STRING", "concentration at 8 h"],
 "data": [
  ["Cc1cc(C(F)(F)F)nc2ccc(Oc3c(Cl)cc(-n4nc(C#N)c(=O)[nH]c4=O)cc3Cl)cc12", "591 ng/g"]
]}

====

Assay: tissue distribution studies in mice
Format: in vivo
Details: mouse, liver, po, 10 mg/kg, Table 6, 8.00 h, individual animal, read-out: Liver

{"columns": ["STRUCTURE_STRING", "concentration at 8 h [ng/g]"],
 "data": [
  ["Cc1cc(C(F)(F)F)nc2ccc(Oc3c(Cl)cc(-n4nc(C#N)c(=O)[nH]c4=O)cc3Cl)cc12", 689]
]}

====

Target: THR-β (Homo sapiens, UniProt P10828)
Construct: GST; made in house
Sequence (P10828 whole entry): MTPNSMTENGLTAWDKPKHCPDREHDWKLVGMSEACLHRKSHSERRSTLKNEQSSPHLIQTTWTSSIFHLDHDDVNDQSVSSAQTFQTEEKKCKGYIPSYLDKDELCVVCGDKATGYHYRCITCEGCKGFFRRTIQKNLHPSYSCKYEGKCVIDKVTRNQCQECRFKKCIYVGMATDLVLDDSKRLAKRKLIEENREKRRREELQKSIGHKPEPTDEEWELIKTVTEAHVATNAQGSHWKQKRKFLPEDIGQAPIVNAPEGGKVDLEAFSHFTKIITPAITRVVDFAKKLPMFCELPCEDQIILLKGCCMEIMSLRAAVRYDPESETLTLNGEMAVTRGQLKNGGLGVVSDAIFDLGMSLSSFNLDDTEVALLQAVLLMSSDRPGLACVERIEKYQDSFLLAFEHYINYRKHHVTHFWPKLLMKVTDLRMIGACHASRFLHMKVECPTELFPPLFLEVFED
Test: in vitro THR β agonist activity at the molecular level (AlphaScreen detection)
Assay type: biochemical
Details: read-out: THR-β Rel % Activity of T3; in vitro molecular evaluation system
Use Satisfied when the recorded Emax is no lower than 80%; use Not satisfied when it is lower.

{"columns": ["STRUCTURE_STRING", "CLASS_ASSIGNMENT"],
 "data": [
  ["Cc1cc(C2CCCCC2)nc2ccc(Oc3c(Cl)cc(-n4nc(N)c(=O)[nH]c4=O)cc3Cl)cc12", "Satisfied"],
  ["Cc1cc(-c2ccc(F)cc2)nc2ccc(Oc3c(Cl)cc(-n4nc(N)c(=O)[nH]c4=O)cc3Cl)cc12", "Satisfied"],
  ["Cc1cc(-c2cccs2)nc2ccc(Oc3c(Cl)cc(-n4nc(C#N)c(=O)[nH]c4=O)cc3Cl)cc12", "Not satisfied"],
  ["Cc1cc(-c2ccoc2)nc2ccc(Oc3c(Cl)cc(-n4nc(C#N)c(=O)[nH]c4=O)cc3Cl)cc12", "Not satisfied"],
  ["Nc1nn(-c2cc(Cl)c(Oc3ccc4nccc(Cl)c4c3)c(Cl)c2)c(=O)[nH]c1=O", "Not satisfied"],
  ["Cc1cc(-c2ccco2)nc2ccc(Oc3c(Cl)cc(-n4nc(C#N)c(=O)[nH]c4=O)cc3Cl)cc12", "Satisfied"]
]}

====

Assay: tissue distribution studies in mice
Format: in vivo
Conditions: mouse, heart, po, 10 mg/kg, Table 6, 3.00 h, individual animal, read-out: Heart
MEASURED_PARAMETER: concentration at 3 h

{"columns": ["STRUCTURE_STRING", "TEST_VALUE"],
 "data": [
  ["Cc1cc(C(F)(F)F)nc2ccc(Oc3c(Cl)cc(-n4nc(C#N)c(=O)[nH]c4=O)cc3Cl)cc12", "197 ng/g"]
]}

====

Assay: pharmacokinetic studies in mice
Type: in vivo
Conditions: mouse, in vivo, iv, mean
MEASURED_PARAMETER: half-life (h)

{"columns": ["STRUCTURE_STRING", "MEASURED_PARAMETER", "TEST_VALUE"],
 "data": [
  ["Cc1cc(C(F)(F)F)nc2ccc(Oc3c(Cl)cc(-n4nc(C#N)c(=O)[nH]c4=O)cc3Cl)cc12", "half-life", 4.33],
  ["Cc1cc(-c2ccc(F)cc2)nc2ccc(Oc3c(Cl)cc(-n4nc(C#N)c(=O)[nH]c4=O)cc3Cl)cc12", "half-life", 6.04]
]}

====

The compounds listed here are annotated with their Tmax.
Experiment: pharmacokinetic studies in mice
Type: in vivo
Conditions: mouse, in vivo, po, mean, read-out: Tmax
MEASURED_PARAMETER: Tmax (min)

{"columns": ["COMPOUND", "UNIT_LABEL", "TEST_VALUE"],
 "data": [
  ["Cc1cc(-c2ccc(F)cc2)nc2ccc(Oc3c(Cl)cc(-n4nc(C#N)c(=O)[nH]c4=O)cc3Cl)cc12 [Compound 3]", "min", 49.8],
  ["Cc1cc(C(F)(F)F)nc2ccc(Oc3c(Cl)cc(-n4nc(C#N)c(=O)[nH]c4=O)cc3Cl)cc12 [Compound 38]", "min", 49.8]
]}

====

Assay: tissue distribution studies in mice
Format: in vivo
Settings: mouse, liver, po, 10 mg/kg, Table 6, 3.00 h, mean, read-out: Liver Mean
MEASURED_PARAMETER: concentration at 3 h (ng/g)

{"columns": ["STRUCTURE_STRING", "TEST_VALUE"],
 "data": [
  ["Cc1cc(C(F)(F)F)nc2ccc(Oc3c(Cl)cc(-n4nc(C#N)c(=O)[nH]c4=O)cc3Cl)cc12", 1580]
]}
